assay-method-text: amyloid nucleation score (Sup35N fusion, yeast selection) (log enrichment); library NNK1; higher = more nucleation; inactive = no reads after selection;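 further: zero at mode of non-aggregating sequences after 7 days selection at 30°C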
recorded-metric: amyloid nucleation score
Answers are plain numbers.

The examples below pair each entry with its known result.
NRNISAIGACTGCTNMVFYS	5.64
NRGSRTVLWDGNWAGTNTMP	-0.154
GVLILCVSAKSRSAAVKQLS	0.755

Now look at this entry.
Value of measured amyloid nucleation score for the entry HDICTLWILSAL : 0.602

###

Please go through the items and note down their amyloid nucleation score.
assay-method-text: amyloid nucleation score (Sup35N fusion, yeast selection) (log enrichment); library NNK2; higher = more nucleation; inactive = no reads after selection
Answers are plain numbers.

LLFPCFVTRSLVS	-0.871
TSVNALFRWPRLFSYRREPV	0.202
LFHCLSELLVGSSNSRFVCE	0.456
IWRCNPG	1.04
SIVYTLTCVL	4.95
KYVGSWITTDVSFECTVI	-0.46

Would you be so kind as to report amyloid nucleation score for each listed record?
1. DGISFSAKSSSYSDASLRMR
2. RRNNNFLWIDLNLMLPCYDW
3. MGVKPTPCRVRPPRRPGASA
4. KLLFLLVVVLADQMSCLGTS

1. 1.62
2. 7.75
3. 1.68
4. 1.1

Would you be so kind as to report amyloid nucleation score for each listed record?
1. KVALVHAGLKNFWRSSLWRL
2. HPFMFKVCSTYFLNYLASCQ
3. TVIRRIYFRRPGRSNMSCTN
4. VNSLFDWNRAKFLIR
5. LTCRTFYNNCVNEWSLHLSL

[1.11, 6.78, -0.067, -1.39, 4.07]

Would you be so kind as to report amyloid nucleation score for each listed record?
1. GKGRMYES
2. RMGKRNFEQNSANQWVPMNP
3. FCRETLRTRKAETLGTVNKE

[0.738, 0.691, -0.937]

Source: the supplement of paper PMC12042874
